target: memapsin 2 (Homo sapiens, UniProt P56817); assay: Inhibition of memapsin 2 beta-secretase activity toward fluorogenic substrate FS-2; format: biochemical; details: memapsin 2, pH 4, 37° C., 20 minutes pre-incubation, substrate FS-2; read-out: M2Ki
Sequence (P56817 46-501): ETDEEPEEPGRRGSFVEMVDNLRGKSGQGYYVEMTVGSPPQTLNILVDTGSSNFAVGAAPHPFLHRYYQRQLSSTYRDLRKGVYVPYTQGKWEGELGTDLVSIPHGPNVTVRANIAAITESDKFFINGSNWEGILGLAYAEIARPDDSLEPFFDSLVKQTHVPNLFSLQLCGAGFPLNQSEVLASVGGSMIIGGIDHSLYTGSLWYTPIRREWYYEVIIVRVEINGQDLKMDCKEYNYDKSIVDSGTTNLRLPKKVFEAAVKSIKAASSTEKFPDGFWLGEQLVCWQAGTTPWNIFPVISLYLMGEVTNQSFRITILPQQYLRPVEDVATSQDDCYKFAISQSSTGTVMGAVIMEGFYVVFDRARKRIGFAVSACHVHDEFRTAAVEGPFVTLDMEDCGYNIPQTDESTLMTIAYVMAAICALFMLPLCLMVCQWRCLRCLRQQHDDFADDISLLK
pKi: −log10 of the molar value.
REPORTED ENDPOINT: pKi

Solved entries:
{"STRUCTURE STRING": "Cc1cc(C(=O)N[C@@H](Cc2ccccc2)[C@H](O)CNCc2cccc(OC(F)(F)F)c2)cc(C(=O)N2CCC[C@@H]2c2nc(C)co2)c1", "ASSAY TARGET": "memapsin 2 (Homo sapiens, UniProt P56817)", "TEST VALUE": "> 7.00"}
{"STRUCTURE STRING": "Cc1coc([C@H]2CCCN2C(=O)c2cccc(C(=O)N[C@@H](Cc3ccccc3)[C@H](O)CNC3CCCCC3)c2)n1", "ASSAY TARGET": "memapsin 2 (Homo sapiens, UniProt P56817)", "TEST VALUE": "< 6.70"}

## Input Record request: pKi value, item Cc1csc([C@H]2CCCN2C(=O)c2cc(C(=O)N[C@@H](Cc3ccccc3)[C@H](O)CNCc3cccc(C(F)(F)F)c3)cc(-c3cnccn3)c2)n1
## Output > 7.00

---

molecular target: UniProtKB P56817; test: Inhibition of memapsin 2 beta-secretase activity toward fluorogenic substrate FS-2; assay type: biochemical; details: read-out: M2 Ki
REPORTED ENDPOINT: Ki (nM)
The response must be a number in nM with no trailing unit.

## Input Record request: Ki value, item Cc1csc([C@H]2CCCN2C(=O)c2cccc(C(=O)N[C@@H](Cc3ccccc3)[C@H](O)CNCc3cccc(C(F)(F)F)c3)c2)n1
## Output 7.09

---

target: memapsin 1 (Homo sapiens); test: Inhibition of memapsin 1 beta-secretase activity (substrate peptide ELDLAVEFWHDR, MALDI-TOF); assay type: biochemical; settings: memapsin 1, pH 4.1, 37 degrees C.; read-out: M1Ki
Sequence (Q9Y5Z0 63-518): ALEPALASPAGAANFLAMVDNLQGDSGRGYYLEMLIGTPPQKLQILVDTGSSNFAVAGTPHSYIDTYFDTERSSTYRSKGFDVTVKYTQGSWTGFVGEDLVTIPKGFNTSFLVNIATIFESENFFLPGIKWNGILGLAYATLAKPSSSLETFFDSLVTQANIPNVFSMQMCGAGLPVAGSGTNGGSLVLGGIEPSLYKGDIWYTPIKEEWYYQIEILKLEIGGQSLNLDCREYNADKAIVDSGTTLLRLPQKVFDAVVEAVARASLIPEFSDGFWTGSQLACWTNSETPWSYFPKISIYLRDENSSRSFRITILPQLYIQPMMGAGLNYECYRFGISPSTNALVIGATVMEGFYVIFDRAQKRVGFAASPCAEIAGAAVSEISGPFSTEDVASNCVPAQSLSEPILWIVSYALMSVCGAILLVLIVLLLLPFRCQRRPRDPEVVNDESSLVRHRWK
pKi: −log10 of the molar value.
Reported pKi values for a set of compounds

{"COMPOUND": "Cc1cc(C(=O)N[C@@H](Cc2ccccc2)[C@H](O)CNCc2cccc(C(C)(C)C)c2)cc(C(=O)N2CCC[C@@H]2c2nc(C)cs2)c1 [Compound 14]", "ASSAY TARGET": "memapsin 1 (Homo sapiens)", "pKi": "> 6.52"}
{"COMPOUND": "Cc1csc([C@H]2CCCN2C(=O)c2cccc(C(=O)N[C@@H](Cc3ccccc3)[C@H](O)CNCc3cncc(C(C)C)c3)c2)n1 [Compound 2]", "ASSAY TARGET": "memapsin 1 (Homo sapiens)", "pKi": "> 6.52"}
{"COMPOUND": "COc1cccc(CNC[C@@H](O)[C@H](Cc2ccccc2)NC(=O)c2cc(C)cc(C(=O)N3CCC[C@@H]3c3nc(C)cs3)c2)c1 [Compound 6]", "ASSAY TARGET": "memapsin 1 (Homo sapiens)", "pKi": "< 6.30"}
{"COMPOUND": "COc1cccc(CNC[C@@H](O)[C@H](Cc2ccccc2)NC(=O)c2cccc(C(=O)N3COC[C@@H]3c3nc(C)cs3)c2)c1 [Compound 15]", "ASSAY TARGET": "memapsin 1 (Homo sapiens)", "pKi": "6.30 to 6.52"}
{"COMPOUND": "Cc1csc([C@H]2CCCN2C(=O)c2cccc(C(=O)N[C@@H](Cc3ccccc3)[C@H](O)CNCc3cccc(C(F)(F)F)c3)c2)n1 [Compound 9]", "ASSAY TARGET": "memapsin 1 (Homo sapiens)", "pKi": "6.30 to 6.52"}

## Input Record request: pKi value, item Cc1cc(C(=O)N[C@@H](Cc2ccccc2)[C@H](O)CNCc2cccc(C(F)(F)F)c2)cc(C(=O)N2CCC[C@@H]2c2nc(C)cs2)c1 [Compound 12]
## Output > 6.52

## Input Next compound up: Cc1csc([C@H]2CCCN2C(=O)c2cccc(C(=O)N[C@@H](Cc3ccccc3)[C@H](O)CNCc3cccc(C(C)(C)C)c3)c2)n1 [Compound 10]
## Output 6.30 to 6.52

---

Reported pKi values for a set of molecules
target: memapsin 2 (Homo sapiens, UniProt P56817); test: Inhibition of memapsin 2 beta-secretase activity toward fluorogenic substrate FS-2; type: biochemical; conditions: memapsin 2, pH 4, 37° C., 20 minutes pre-incubation, substrate FS-2; read-out: M2Ki
pKi: −log10 of the molar value.

Solved entries:
{"MOLECULE": "COc1cc(C(=O)N[C@@H](Cc2ccccc2)[C@H](O)CNCc2cccc(C(F)(F)F)c2)cc(C(=O)N2CCC[C@@H]2c2nc(C)co2)c1 [Compound 93]", "ASSAY TARGET": "memapsin 2 (Homo sapiens, UniProt P56817)", "pKi": "> 7.00"}
{"MOLECULE": "Cc1cc(CNC[C@@H](O)[C@H](Cc2ccccc2)NC(=O)c2cccc(C(=O)N3CCC[C@@H]3c3nc(C)cs3)c2)on1 [Compound 65]", "ASSAY TARGET": "memapsin 2 (Homo sapiens, UniProt P56817)", "pKi": "< 6.70"}
{"MOLECULE": "Cc1csc([C@H]2CCCN2C(=O)c2cc(C(=O)N[C@@H](Cc3ccccc3)[C@H](O)CNCc3cncc(C(C)C)c3)cc(-c3cnccn3)c2)n1 [Compound 43]", "ASSAY TARGET": "memapsin 2 (Homo sapiens, UniProt P56817)", "pKi": "> 7.00"}
{"MOLECULE": "C=C(C)c1cccc(CNC[C@@H](O)[C@H](Cc2ccccc2)NC(=O)c2cccc(C(=O)N3CCC[C@@H]3c3nc(C)co3)c2)c1 [Compound 105]", "ASSAY TARGET": "memapsin 2 (Homo sapiens, UniProt P56817)", "pKi": "> 7.00"}
{"MOLECULE": "CCn1cc(CNC[C@@H](O)[C@H](Cc2ccccc2)NC(=O)c2cc(C)cc(C(=O)N3CCC[C@@H]3c3nc(C)co3)c2)cn1 [Compound 110]", "ASSAY TARGET": "memapsin 2 (Homo sapiens, UniProt P56817)", "pKi": "> 7.00"}

## Input Record request: pKi value, item Cc1csc([C@H]2CCCN2C(=O)c2cc(C(=O)N[C@@H](Cc3ccccc3)[C@H](O)CNCc3cncc(C(C)C)c3)cc(-c3ncco3)c2)n1 [Compound 25]
## Output > 7.00

## Input Next molecule up: Cc1csc([C@H]2CCCN2C(=O)c2cc(CF)cc(C(=O)N[C@@H](Cc3ccccc3)[C@H](O)CNCc3cncc(C(F)(F)F)c3)c2)n1 [Compound 51]
## Output > 7.00

## Input Next molecule up: Cc1csc([C@H]2CCCN2C(=O)c2cncc(C(=O)N[C@@H](Cc3ccccc3)[C@H](O)CNCc3cc(C#N)cc(C(C)C)c3)c2)n1 [Compound 61]
## Output > 7.00

## Input Next molecule up: COc1cccc([C@H](C)NC[C@@H](O)[C@H](Cc2ccccc2)NC(=O)c2cc(C(=O)N3CCC[C@@H]3c3nc(C)cs3)cc(N(C)C)c2)c1 [Compound 53]
## Output 6.70 to 7.00

## Input Next molecule up: COc1cc(C(=O)N[C@@H](Cc2ccccc2)[C@H](O)CNCc2cccc(Cl)c2)cc(C(=O)N2CCC[C@@H]2c2nc(C)cs2)c1 [Compound 18]
## Output > 7.00

## Input Next molecule up: Cc1coc([C@H]2CCCN2C(=O)c2cccc(C(=O)N[C@@H](Cc3ccccc3)[C@H](O)CNCc3cncc(C(C)C)c3)c2)n1 [Compound 34]
## Output > 7.00

## Input Next molecule up: Cc1csc([C@H]2CCCN2C(=O)c2cc(C(=O)N[C@@H](Cc3ccccc3)[C@H](O)CNCc3cccc(C(F)(F)F)c3)cc(-c3ccco3)n2)n1 [Compound 75]
## Output > 7.00

---

molecular target: memapsin 2 (Homo sapiens); assay: Inhibition of memapsin 2 beta-secretase activity toward fluorogenic substrate FS-2; assay type: biochemical; conditions: memapsin 2, pH 4, 37° C., 20 minutes pre-incubation, substrate FS-2; read-out: M2Ki
REPORTED ENDPOINT: Ki

{"STRUCTURE STRING": "COc1cccc(CNC[C@@H](O)[C@H](Cc2ccccc2)NC(=O)c2cccc(C(=O)N3CSC[C@@H]3c3nc(C)cs3)c2)c1", "Ki": "< 100 nM"}

## Input Give memapsin 2 (Homo sapiens) Ki for COc1cc(C(=O)N[C@@H](Cc2ccccc2)[C@H](O)CNCc2cncc(C(C)C)c2)cc(C(=O)N2CCC[C@@H]2c2nc(C)cs2)c1
## Output < 100 nM

## Input Next compound up: COc1cc(C(=O)N[C@@H](Cc2ccccc2)[C@H](O)CNCc2cc(Cl)cc(Cl)c2)cc(C(=O)N2CCC[C@@H]2c2nc(C)cs2)c1
## Output < 100 nM

## Input Next compound up: Cc1coc([C@H]2CCCN2C(=O)c2cc(CF)cc(C(=O)N[C@@H](Cc3ccccc3)[C@H](O)CNCc3cncc(C(C)(C)F)c3)c2)n1
## Output < 100 nM

## Input Next compound up: Cc1coc([C@H]2CCCN2C(=O)c2cncc(C(=O)N[C@@H](Cc3ccccc3)[C@H](O)CNCc3cccc(C(C)(C)C)c3)c2)n1
## Output < 100 nM

## Input Next compound up: Cc1csc([C@H]2CCCN2C(=O)c2cccc(C(=O)N[C@@H](Cc3ccccc3)[C@H](O)CNCc3cncc(C(C)(C)F)c3)c2)n1
## Output < 100 nM
